ASSAY NOTES: HRP/luminol detection interference without ALR, dose response, artefact control for ALR inhibitor project, biochemical, luminescence, no ALR or DTT, cherry-pick (AID 540356)
PARTICULARS: HRP/H2O2 luminol luminescence counterscreen; series mostly up to 10 µM
The whole screen tested about 2,500 compounds, of which about 360 (14%) were called active.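 The calls were made as follows: active = signal-lowering compounds whose fitted half-maximal concentration AC50 is no higher than ten times their top tested concentration; inconclusive = flat curve with 30 to 70% inhibition, or poor fit; inactive = flat within 30%, signal increase, or AC50 above limit.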 The list is a sample of the results.
Outcomes you can answer with include only these: active, inactive

CCc1c(C)c2cc(Cl)c(O)c(CN3CCCCC3)c2oc1=O ... inactive
O=C(Nc1ccc(N2CCCCC2)cc1)c1cccnc1 ... inactive
CN(C)c1ccc(-c2n[nH]c(=S)n2-c2ccccc2)cc1 ... inactive
Cc1cc(C(=O)N2CCCC(Nc3ccc(C(C)C)cc3)C2)nn1C (configuration not stated) ... inactive
Cc1cc(S(=O)(=O)N2CCN(c3ccccc3O)CC2)c(C)s1 ... inactive
O=C(NNS(=O)(=O)c1ccc(F)cc1)c1cc2ccccc2cc1O ... inactive

Request: Per the records of this test, what outcome belongs to CC(=O)NC(c1cc(Cl)c2ccccc2c1O)C(C)C (configuration not stated) ?
Result: inactive

Request: Per the records of this test, what outcome belongs to O=C(NN=C1CCC(=NNC(=O)c2cccnc2)CC1)c1cccnc1 ?
Result: active

Request: Per the records of this test, what outcome belongs to Cc1c(Br)c(=O)oc2c(Br)c(O)c(O)cc12 ?
Result: active

Request: Per the records of this test, what outcome belongs to Cc1ccc(S(=O)(=O)Nc2ccc(O)c(Sc3ncn[nH]3)c2)cc1 ?
Result: active

Request: Per the records of this test, what outcome belongs to O=[N+]([O-])c1ccc(CSC2=NCCN2)cc1 ?
Result: inactive

Request: Per the records of this test, what outcome belongs to O=C(Nc1ccccc1N1CCCC1)c1cccnc1 ?
Result: inactive

Entry source: PubChem BioAssay AID540356
